# System: HL-60(TB) leukemia
# assay_procedure: NCI-60 one-dose screen, 48 h (100 = growth as untreated, 0 = no growth, -100 = all killed)
# condition_parameters: 10 µM unless noted
About 83,000 compounds went through this panel and 20% of them were active in at least one assay; those are over-represented in the sample as a whole.
measured_parameter: growth (%)

[[record]]
molecule = "COc1cc2c(c(OC)c1OC)CCC(c1cccc(NC(=O)c3cccc(Br)c3)c1)O2 (stereo not given)"
observed = 97

[[record]]
molecule = "O=C(CCl)Nc1ccc(Cc2ccc(NC(=O)CCl)cc2)cc1"
observed = -18.3

[[record]]
molecule = "CCCCCCCCCCCCCC[n+]1cccc(C(N)=O)c1"
observed = -55.9

[[record]]
molecule = "Cn1c2ccccc2c2ccccc21"
observed = 95.9

[[record]]
molecule = "Cc1cc(C)n(CC(=O)Nc2ccc(-c3nc4ccccc4s3)cc2)n1"
observed = 103

[[record]]
molecule = "CCOC(=O)c1cnc2sc(-c3ccc(OC)cc3)nc2c1Cl"
observed = 93.8

[[record]]
molecule = "COc1cc2c(c(OC)c1OC)C(=O)CC(c1cccc(C(=O)Nc3ccccc3Br)c1)O2 (stereo not given)"
observed = 76.5

[[record]]
molecule = "COc1ccc(OCC(=O)OC(C)C)cc1"
observed = 90

[[record]]
molecule = "OC1OC(COC(c2ccccc2)(c2ccccc2)c2ccccc2)C(O)C(O)C1O (stereo not given)"
observed = 97.4

[[record]]
molecule = "C=C(C)[C@@H]1CC[C@]2(/C=N/Nc3ccncc3)CC[C@]3(C)[C@H](CC[C@@H]4[C@@]5(C)CCCNC(C)(C)[C@@H]5CC[C@]43C)[C@@H]12"
observed = 58.5

